- Test system: MS2 coat protein
- assay-method-text: apparent KD of MS2 coat protein; higher = weaker reporter binding
- measurement-context: Eterna round: R107; input ligand: arginine 13.2 mM
quantity: apparent KD of MS2 coat protein (nM)

macromolecule-sequence	measurement-unit	endpoint-result
CACGCACGAUCGGCCGCCACUCAUGUAGCUUACAUGAGGAUCACCCAUGUAUUUUCUUUCUUUUAGAGGACCGGGAUCGUGCGUG [#03 Same State - Tryptophan B]	nM	25
UUCAAAGGGAACGGUGCUGGUAGCAGAGAUACCAGAGUAAUGAUACUCCCUUGGCAGCUCAGUACAUGAGGAUCACCCAUGUAAU [Exclusion Theophylline A GF24]	nM	13.8
UAUCGUCAGACGGCCGCCACUAGAACAUGAGGAUCACCCAUGUAAGUGGCCGGUCUCCUCAUGACUAGGACCGGGUCUGACGAAU [(Trp1)-(Ms2)-(T)'-(M)'-(Trp2)_Design18]	nM	9.69
AAAUAAAUAACUGAUACCAGUGGACUGACAUGAGGAUCACCCAUGUUGGGUUUUGUUGUCCACCCUUGGCAGCAGGGAUAUAAAA [#24 Exclusion-TheophyllineB]	nM	24.4
GGGCAAGAGGGAAGGAGCGUUAGCUGAGUCACAUGAGGAUCACCCAUGUCGCACAUAGUAUGACAGGUAGGUCGCCCUCUACCCU [SS-ArgB14]	nM	17.7
ACAUGAGGAUCACCCAUGUUUGUUGUUCCUCGAGGACCGGUACGGCCGCCACUCGAACGAGUGGCGCGCGCGCGCGCGCGCGCGC [aMa]	nM	11.6
UAUAUAUAUAUGGAUACCAGCAGAGAAAACGUUUAUCCUAACAUGAGGAUCACCCAUGUAUGCCCUUGGCAGCUGUAUAUAUAUA [8.G]	nM	21.4
AGCACUGUGACGGCCGCCACUAUAUUAGGGUGGUCAGGUUCAUAAAUACAUGAGGAUCACCCAUGUAGGACCGGGUCUCAGUGCA [Omei Trp Exc B A v3]	nM	11.1
AUAUAUACAUGAGGAUCACCCAUGUUAUUACGAGGACCGGUACGGCCGCCACUCGAUAGAGUAGAAGUAAAUUGUAAUUCAUGUU [JR_ExcTryptoA_Sub016]	nM	13.8
AACGUAUACAGAAGGAGCGUGAUUUAUUAUUCUUUAAGAUAUACAUGAGGAUCACCCAUGUCACAGGUAGGUCGCUGUAUUCGUA [JR_ExcArginiB_Sub025]	nM	31
AUAUAUACAUGAGGAUCACCCAUGUUAUUUCGAGGACCGGUACGGCCGCCACUCGAUAGAGUGGAAGUAACAUUUGUUAGAUGAU [JR_SSTryptoA_Sub013]	nM	12.8
ACAUGAGGAUCACCCAUGUCAGGGCACGAUACCAGCUGAUCCGGUGGCCCUUGGCAGCGUGACGUUUGGUCCCGCGGAUCACACG [xxmullin]	nM	92.4

* * *

Below, each entry is listed alongside its reported apparent KD of MS2 coat protein.
- Test system: MS2 coat protein
- assay-method-text: apparent KD of MS2 coat protein, switch OFF state (with FMN for OFF switches, without FMN for ON switches); designed switch direction (-1 OFF switch, 1 ON switch): -1; higher = weaker reporter binding
- measurement-context: FMN input: 0 or 200 uM; Eterna round: R93 (includes R88 designs)

macromolecule-sequence	measurement-target	measurement-unit	apparent KD of MS2 coat protein
CCUACGUGAGGAUAUGCGGAUAACACGUUAGACAAAUAGACGCAGAAGGCACAUGAGGAUCACCCAUGUGAACC [JR_Exc004_Sub317]	MS2 coat protein	nM	17.6
ACAGUUACAGGAUAUACAUGAAUAACUUCAAAGAAAACUCUACAUGAGGAUCACCCAUGUAGAAGGGUAACUGA [Ex2 Design 200 (fingers crossed): Random 18]	MS2 coat protein	nM	18.8
AAAAAACAUGAGGAUCACCCAUGUAAGGAUAUGCUGAAAAAAACCUGGAAAACAGGCAGCAGAAGGUACAAAAA [66%, Wbt, 36]	MS2 coat protein	nM	35.6
AAAAAGUCAGGAUAUCGUAGAAAAAUAUAAAUAAGAAAGUACGAGAAGGGACAUGAGGAUCACCCAUGUAAAAA [Ex 4 #1]	MS2 coat protein	nM	36.8
CCGAGGCGAGGAUAUAUGAAGGACACAACAUUUAGGGUAAGACAUGAGGAUCACCCAUGUAGAAGGCGCGACGC [Ex2_Neo]	MS2 coat protein	nM	38.7
AACAGUACAGGAUAUACAUGAGGAUCACCCAUGUGAGAAUUAAGUGGAGGACCACAAAGUAGAAGGGUACUGAA [Mat - Exclusion 3 - JL mod - D9]	MS2 coat protein	nM	109
AAAAAGUGAGGAUAUGCAGUGGCCUGUAGACGCGAGCACUUGUAGAAGGCACAUGAGGAUCACCCAUGUUUAAA [EX4 Malc#29]	MS2 coat protein	nM	20.5
AAGAAGUCAGGAUAUCGAAAAGAAAAGAAAAGAAAAGAAAACGAGAAGGGACAUGAGGAUCACCCAUGUAAGAA [Smerdis]	MS2 coat protein	nM	25.7
GGAUGUCAAGGAUAUACAUGAGGAUCACCCAUGUGAGAGAAAAAAGUGAGAAAGAAAAGUAGAAGGUGGUGUCG [salish99-ex3-87]	MS2 coat protein	nM	56.1
AACAGGACAGGAUAUACAUGAGGAUCACCCAUGUGAGAAUUAAGUGGCGUACCACAAAGUAGAAGGGUCCUGGA [Mat - Exclusion 3 - JL mod - D40]	MS2 coat protein	nM	216
AAGGGACAUGAGGAUCACCCAUGUGAGGAUAUGACGUAAAUAAAGAAAGAAGAAAUCGUCAGAAGGCACACCAA [55%, Disencluded 2, 3]	MS2 coat protein	nM	117
AACAUGUAAGGAUAUUGAAGAAAAGAAAAGAAAGAAAAGAACAAGAAGGUACAUGAGGAUCACCCAUGUAAGAA [EteRNA is fun!]	MS2 coat protein	nM	18.6
AGAAAGGCAGGAUAUACAUGAGGAUCACCCAUGUUAAGAAAGUGCGAAAGCACAAGAAGUAGAAGGGCCAAGAA [Rupert goes to college]	MS2 coat protein	nM	19.2
